// data source = the supplement of paper PMC10567573

B1: SEC22B (parent)
chain: AKQLFRKLNEQSPTRCTLEAGAMT

Variants of: B1
Experiment: protein stability index of a GFP-peptide fusion (GPS, HEK-293T) (PSI 1-6); higher = more stable;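 also: lentivirally expressed fusions sorted by FACS into six bins by GFP to DsRed ratio, PSI derived from sequencing read proportions per bin multiplied by bin number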
Conditions: c terminus: a fixed tail appended
assay-metric: protein stability index

Q3I    1.77
K7D    2.7
R6G    2.36
A20C    1.64
M23R    2.26
L8M    2.55
E19P    2.99
M23F    1.72
T14C    3.02
A22R    2.14
T24K    2.29
Q3T    2.59
K7C    2.82
T24I    1.92
A20S    2.99
G21I    1.88
Q3Y    1.55
L8T    2.89
K7F    1.67
N9A    1.95
T17D    3.48
A22C    2.07
